Cited source: BigSolDB 2.1

run parameters: in n-butyl acetate, 323.15 K
value type: solubility (mole fraction)

1. CSCC[C@H](NC(=O)OCC1c2ccccc2-c2ccccc21)C(=O)O : 0.0532

###

run parameters: in sec-butanol, 323.15 K
value type: solubility (mole fraction)

1. CSCC[C@H](NC(=O)OCC1c2ccccc2-c2ccccc21)C(=O)O : 0.0868

###

run parameters: in n-propyl acetate, 293.15 K
value type: solubility (mole fraction)

1. CSCC[C@H](NC(=O)OCC1c2ccccc2-c2ccccc21)C(=O)O : 0.021

###

run parameters: in isopropanol, 313.15 K
value type: solubility (mole fraction)

1. CSCC[C@H](NC(=O)OCC1c2ccccc2-c2ccccc21)C(=O)O : 0.0326
